Assay: caspase-8 TRAIL sensitization, hit retest, confirmation, cell-based, NB7+caspase-8, with/without TRAIL, luminescence panel (AID 651596)
Details: NB7 neuroblastoma + caspase-8, without TRAIL, luminescence viability, without TRAIL, mean of runs, at 10 µM
REPORTED_ENDPOINT: activity (%)
Numbers only, in %.

Here's what some known entries look like.
{"COMPOUND": "O=C(NC(=S)N1CCN(c2ccc(C(F)(F)F)cc2[N+](=O)[O-])CC1)c1cccs1", "activity [%]": 62.1}
{"COMPOUND": "Cc1cccc(NC(=O)c2onc3c2CCCC3)n1", "activity [%]": 89.4}

Give measured activity for every item shown.
1. O=C(Nc1nc2ccccc2[nH]1)c1ccccc1OC(F)F
2. O=C(Cn1ncc(Cl)c(Cl)c1=O)Nc1ccc2c(c1)OCO2
3. C#CCN(C[C@@H]1[C@@H](OC(=O)Nc2cccs2)[C@@H](OC(=O)Nc2cccs2)Cn2c(=O)ccc(=O)n21)S(=O)(=O)c1ccc(C)cc1
4. COCCN(C(=O)COC(=O)c1c(NC(C)=O)sc(C)c1C)c1c(N)n(Cc2ccccc2)c(=O)[nH]c1=O

[82.2, 99.5, 95.8, 65.8]

---

Assay: inhibitors of PAF-induced NF-kB signaling, retest, confirmation, cell-based, GFP fluorescence, single concentration (AID 602472);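 note: stimulus PAF is a Pseudomonas aeruginosa filtrate and not platelet activating factor; plate controls were DMSO wells with stimulus for no effect and unstimulated DMSO wells for full effect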
Conditions: KKLEB CF airway cells, overnight, at 5 µM, stronger effect = higher value
Some of the results follow.
REPORTED_ENDPOINT: inhibition (%)
One number for each entry, in %.

Here's what some known entries look like.
{"MOLECULE": "COc1ccc(CNC(=O)C(c2ccc(O)cc2)N(Cc2ccco2)C(=O)c2snc(C(N)=O)c2N)cc1 (stereo not given)", "UNIT_NAME": "%", "inhibition": 49.2}
{"MOLECULE": "COc1ccc2[nH]c(=O)c(CN(Cc3cccnc3)S(=O)(=O)c3ccccc3F)cc2c1", "UNIT_NAME": "%", "inhibition": 86.3}
{"MOLECULE": "CCOC(=O)c1c(-c2ccccc2)oc2cc(Br)c(O)c(C=O)c12", "UNIT_NAME": "%", "inhibition": 90.8}
{"MOLECULE": "COc1ccccc1-n1nnnc1S(=O)(=O)Cc1ccc(Cl)cc1", "UNIT_NAME": "%", "inhibition": 99.1}

Give measured inhibition for every item shown.
1. O=C(Nc1ccc2oc(-c3ccc4ccccc4c3)nc2c1)c1cccs1
2. Cc1ccc(Cc2c(-c3ccco3)nc3ccc(Cl)cn23)cc1
3. Cc1ccc2occ(/C=N/NC(=O)c3ccccc3C)c(=O)c2c1
4. C=CCc1cc(S(=O)(=O)c2ccc(O)c(CC=C)c2)ccc1O

[38.7, -82.3, 94.8, 48.8]

Give measured inhibition for every item shown.
1. Cc1ccc([C@H]2C[C@H](O)[C@@H](n3cc(COC(=O)c4ccccc4)nn3)CN2CC2CCCCC2)cc1
2. CN(C)C(=O)c1cccc(-c2cnc3sc(NCc4ccc5c(c4)OCO5)nn23)c1
3. O=[N+]([O-])c1ccc(Oc2ccc(F)cc2Br)c2ccncc12

1: -29.2; 2: 97.2; 3: 77.7

Give measured inhibition for every item shown.
1. C=CCSc1nsc(NC(=O)Nc2cccc(C(C)=O)c2)n1
2. N#Cc1cccc(NC(=O)COC(=O)c2ccccc2C(=O)c2ccc(Cl)c([N+](=O)[O-])c2)c1
3. O=C(NNc1ccccc1Cl)C(O)(c1cccc(C(F)(F)F)c1)c1cccc(C(F)(F)F)c1
4. CC1(C)O[C@@H]2CC3C4C[C@H](F)C5=CC(=O)C=CC5(C)C4C(O)CC3(C)[C@]2(C(=O)CO)O1 (stereo not given in full)
5. Clc1ccc2c(c1)C1=C(C(c3ccncc3)O2)C(c2ccc(Br)cc2)n2ncnc2N1 (stereo not given)
6. COc1ccc(NC(=O)c2sc3nc(C)nc(N4CCN(c5ccccn5)CC4)c3c2C)c(OC)c1
7. CC(=O)Oc1c(C(=O)c2nnc(C)o2)c(=O)n(Cc2ccccc2)c2ccccc12
8. CCOC(=O)C(=Cc1ccccc1)C(=O)c1ccccc1

1: 98.3; 2: 108; 3: 63; 4: 27.4; 5: 50; 6: 38.6; 7: 59; 8: -122

Name the recorded inhibition of the molecule listed here: Cc1cc2nc(-c3ccco3)c(Cc3cccc(F)c3)n2c(C)c1Br
-41.6
